- test.details: Kinetic solubility assay (HPLC external standard)
- Type: physicochemical
- condition.parameters: PBS pH 7.4 with 2% DMSO, PBS pH 7.4, 2% DMSO, 37° C.
property.measured: solubility at 3 h (µM)

structure.smiles	unit.tag	solubility at 3 h
NCC[C@@H](Oc1cc(Cl)cc2[nH]cnc12)c1ccccc1	µM	157
CNCC[C@@H](Oc1cc(Cl)cc2[nH]cnc12)c1ccccc1	µM	177
NCC[C@@H](Oc1cc(Cl)cc2[nH]ncc12)c1ccccc1	µM	188
OCCNCC[C@@H](Oc1cc(Cl)cc2[nH]cnc12)c1ccccc1	µM	176
CNCC[C@@H](Oc1cc(Cl)cc2[nH]ncc12)c1ccccc1	µM	169

Value source: patent US20250250237A1
